So I've got pIC50 readings for BTK (Homo sapiens), take a look.
Expect pIC50 as a plain number equal to -log10 of the molar concentration.

C=CC(=O)N1CCC[C@H](Nc2cc(CN3CCN(CCC#N)CC3)cc(Nc3ncc(C)s3)n2)C1 = 8.96
C=CC(=O)N1CCC[C@H](Nc2cc(CN3CCN(C)CC3)cc(Nc3ncc(C)s3)n2)C1 = 8.80
C=CC(=O)N1CCC[C@H](N(C)c2cc(CN3CCOCC3)cc(Nc3ncc(C)s3)n2)C1 = 8.66
C=CC(=O)N1CCC[C@H](Nc2cc(CN3CCN(CCCN)CC3)cc(Nc3ncc(C)s3)n2)C1 = 8.21
C=CC(=O)N1CC[C@H](Nc2cc(CN3CCOCC3)cc(Nc3ncc(C)s3)n2)C1 = 8.44

Exam item: I would be grateful if you could share the reported pIC50 for C=CC(=O)N1CCC(Nc2cc(CN3CCOCC3)nc(Nc3ncc(C)s3)n2)C1 (stereo not drawn) .
Marked response: 7.14

Exam item: I would be grateful if you could share the reported pIC50 for `C=CC(=O)N1CCC[C@H](Nc2cc(OC3CCN(C)CC3)cc(Nc3ncc(C)s3)n2)C1` .
Marked response: 8.74

Exam item: I would be grateful if you could share the reported pIC50 for `C=CC(=O)N1CCC[C@H](Nc2cc(Cc3ccccn3)cc(Nc3ncc(C)s3)n2)C1` .
Marked response: 8.49
